Listed here are compounds together with their documented pKi.
# tested target: rat orexin 1 receptor (Rattus norvegicus)
# protocol details: Rat orexin 1 receptor radioligand binding
# condition context: rat orexin 1 receptor radioligand binding; averages of 2-20 runs; read-out: rOX1 Ki
Please treat pKi as minus the base-10 logarithm of the molar concentration.

As a guide, the following entries are already answered.
substance_smiles=Cc1ccc(C(=O)N2CCC[C@@H](Nc3ccc(C(F)(F)F)cn3)[C@@H]2C)c(-n2nccn2)n1 observation_type=pKi numeric_readout=7.62
substance_smiles=C[C@H]1[C@H](Oc2ncc(C(F)(F)F)cc2F)CCCN1C(=O)c1ccccc1-c1ncc(F)cn1 observation_type=pKi numeric_readout=7.33
substance_smiles=C[C@H]1[C@H](Oc2ccc(C(F)(F)F)cn2)CCCN1C(=O)c1cccc(F)c1-n1nccn1 observation_type=pKi numeric_readout=7.68

Task: What does the data say about its pKi? Entry: C[C@H]1[C@H](Oc2ncc(C(F)(F)F)cn2)CCCN1C(=O)c1ccccc1-c1ncccn1
Output: 7.49
